meta.source: patent US7098241B2

target: recombinant HDAC-1 (Homo sapiens, UniProt Q13547); construct: made in house; host or cells: HEK 293 cells; assay: HDAC biochemical quench assay; conditions: recombinant HDAC-1 purified from HEK 293 cells, 1 uM peptide substrate, 90 min at room temperature
Sequence (Q13547 whole entry, species assumed): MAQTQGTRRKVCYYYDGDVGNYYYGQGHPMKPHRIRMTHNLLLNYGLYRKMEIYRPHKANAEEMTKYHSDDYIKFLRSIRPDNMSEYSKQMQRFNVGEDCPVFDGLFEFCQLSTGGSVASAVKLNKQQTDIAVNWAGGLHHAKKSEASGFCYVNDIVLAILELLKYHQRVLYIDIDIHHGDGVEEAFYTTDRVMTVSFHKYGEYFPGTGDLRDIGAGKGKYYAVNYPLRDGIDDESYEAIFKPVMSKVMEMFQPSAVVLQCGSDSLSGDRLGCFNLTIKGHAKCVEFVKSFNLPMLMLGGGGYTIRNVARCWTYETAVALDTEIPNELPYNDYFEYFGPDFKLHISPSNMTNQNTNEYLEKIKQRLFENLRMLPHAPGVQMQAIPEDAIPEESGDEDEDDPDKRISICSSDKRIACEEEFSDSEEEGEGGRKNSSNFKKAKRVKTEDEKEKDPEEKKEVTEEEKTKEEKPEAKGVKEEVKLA
pIC50: −log10 of the molar value.
Experimental endpoint: pIC50

CC[C@H](NC(=O)c1ccc(C(=O)NO)s1)c1ccccc1 [Example 4g] = 8.50

P: C[C@@H](NC(=O)c1ccc(C(=O)NO)s1)c1ccccc1 [Example 1]
Q: COc1ccc([C@@H](C)NC(=O)c2ccc(C(=O)NO)s2)cc1 [Example 2i]
R: C[C@@H](NC(=O)c1ccc(C(=O)NO)s1)c1ccc(C(C)(C)C)cc1 [Example 8e]
S: O=C(NO)c1ccc(C(=O)N[C@@H](Cc2ccccc2)c2ccccc2)s1 [Example 10f]
Prompt: Ordering criterion: pIC50; begin with the maximum. Labels, requested order.
Completion: S, R, Q, P

* * *

biological target: recombinant HDAC-1 (Homo sapiens, UniProt Q13547); assay: HDAC biochemical quench assay; details: recombinant HDAC-1 purified from HEK 293 cells, 1 uM peptide substrate, 90 min at room temperature
pIC50: −log10 of the molar value.
Experimental endpoint: pIC50

P: C[C@H](NC(=O)c1ccc(C(=O)NO)s1)c1ccc(C(F)(F)F)cc1 [Example 10d]
Q: C[C@@H](NC(=O)c1ccc(C(=O)NO)s1)c1ccc(F)cc1 [Example 2b]
Prompt: Which shows the larger pIC50 value: P or Q ? Refer to your chosen item by its label in the answer.
Completion: P

* * *

Test system: HT-29 cells (human colon carcinoma cell line)
Assay: MTT anti-proliferation assay on HT-29 cells
Type: cell-based
Conditions: 384 well plates, 5 days, read-out: IC50 HT29 384
Procedure: MTT (3-(4,5-dimethylthiazol-2-yl)-2,5-diphenyl tetrazolium bromide) is widely used for the quantitative determination of cytotoxic effects or in vitro chemosensitivity of tumor cells. […] We proceeded as follows: HT-29 cells (human colon carcinoma cell line) were cultivated in RPMI 1640, 2.5% FCS, 2 mM glutamine, 100 u/ml penicillin, 100 ug/ml streptomycin. […] After careful mixing, the plates were measured in Victor 2 (scanning multiwell spectrophotometer, Wallac) at 550 nm. […]
pIC50: −log10 of the molar value.
Experimental endpoint: pIC50

C[C@H](NC(=O)c1ccc(C(=O)NO)s1)c1ccc(Br)cc1 = 6.06
C[C@H](NC(=O)c1ccc(C(=O)NO)s1)c1ccc2ccccc2c1 = 6.04
C[C@H](NC(=O)c1ccc(C(=O)NO)s1)c1ccccc1 = 6.08
C[C@H](NC(=O)c1ccc(C(=O)NO)s1)c1ccc(Cl)cc1 = 6.08

* * *

biological target: recombinant HDAC-1 (Homo sapiens, UniProt Q13547); construct: made in house; host or cells: HEK 293 cells; test: HDAC biochemical quench assay; conditions: recombinant HDAC-1 purified from HEK 293 cells, 1 uM peptide substrate, 90 min at room temperature
Experimental endpoint: IC50 (nM)

Examples with answers:
C[C@@H](NC(=O)c1ccc(C(=O)NO)s1)c1ccc(C(F)(F)F)cc1 [Example 8d] = 1.26
COC[C@@H](NC(=O)c1ccc(C(=O)NO)s1)c1ccccc1 [Example 4l] = 4.04

a: O=C(NO)c1ccc(C(=O)N[C@H](Cc2ccccc2)c2ccccc2)s1 [Example 8f]
b: C[C@H](NC(=O)c1ccc(C(=O)NO)s1)c1cccs1 [Example 9]
c: O=C(NO)c1ccc(C(=O)N[C@H]2CCCc3ccccc32)s1 [Example 4n]
Prompt: List the 3 entries from lowest IC50 to highest IC50 value. Labels, requested order.
Completion: c, a, b

P: C[C@@H](NC(=O)c1ccc(C(=O)NO)s1)c1cccc2ccccc12 [Example 2e]
Q: COC[C@H](NC(=O)c1ccc(C(=O)NO)s1)c1ccccc1 [Example 2l]
Prompt: // which entry reports the smaller IC50, P or Q ? Refer to your chosen item by its label in the answer.
Completion: P
(P: 1.73 nM, Q: 3.17 nM)

I: COc1cccc([C@H](C)NC(=O)c2ccc(C(=O)NO)s2)c1 [Example 4h]
II: O=C(NO)c1ccc(C(=O)N[C@H]2CCc3ccccc32)s1 [Example 4m]
Prompt: Which shows the larger IC50 value: I or II ? Refer to your chosen item by its label in the answer.
Completion: II

* * *

target: recombinant HDAC-1 (Homo sapiens); test: HDAC biochemical quench assay; details: recombinant HDAC-1 purified from HEK 293 cells, 1 uM peptide substrate, 90 min at room temperature
Experimental endpoint: IC50 (nM)

Examples with answers:
C[C@@H](NC(=O)c1ccc(C(=O)NO)s1)c1ccc2ccccc2c1 = 4.97
C[C@@H](NC(=O)c1ccc(C(=O)NO)s1)c1ccc(Br)cc1 = 3.88
C[C@H](NC(=O)c1ccc(C(=O)NO)s1)c1ccc(C(C)(C)C)cc1 [Example 10e] = 1.39

P: O=C(NO)c1ccc(C(=O)N[C@@H](CN2CCOCC2)c2ccccc2)s1
Q: CC[C@@H](NC(=O)c1ccc(C(=O)NO)s1)c1ccccc1
R: O=C(NO)c1ccc(C(=O)N[C@@H]2CCCc3ccccc32)s1
Prompt: Ordering criterion: IC50; begin with the maximum. Labels, requested order.
Completion: P, R, Q
(P: 4.27 nM, R: 2.86 nM, Q: 1.18 nM)

* * *

target: recombinant HDAC-1 (Homo sapiens, UniProt Q13547); construct: made in house; host or cells: HEK 293 cells; experiment: HDAC biochemical quench assay; settings: recombinant HDAC-1 purified from HEK 293 cells, 1 uM peptide substrate, 90 min at room temperature
pIC50: −log10 of the molar value.
Experimental endpoint: pIC50

COc1cccc([C@@H](C)NC(=O)c2ccc(C(=O)NO)s2)c1 [Example 2h] = 8.88
O=C(NO)c1ccc(C(=O)N[C@@H]2CCc3ccccc32)s1 [Example 2m] = 8.86
Cc1ccc([C@@H](C)NC(=O)c2ccc(C(=O)NO)s2)cc1 [Example 2a] = 8.47
COc1ccc([C@H](C)NC(=O)c2ccc(C(=O)NO)s2)cc1 [Example 4i] = 8.59
O=C(NO)c1ccc(C(=O)N[C@H](CN2CCOCC2)c2ccccc2)s1 [Example 10c] = 8.71

I: C[C@@H](NC(=O)c1ccc(C(=O)NO)s1)c1cccs1 [Example 7]
II: C[C@@H](NC(=O)c1ccc(C(=O)NO)s1)c1ccc(Cl)cc1 [Example 2c]
Prompt: Which shows the larger pIC50 value: I or II ? Refer to your chosen item by its label in the answer.
Completion: I
